# Test system: Cyclin-dependent kinase 4/cyclin D1 (Homo sapiens, UniProt P11802)
# Sequence (P11802 whole entry): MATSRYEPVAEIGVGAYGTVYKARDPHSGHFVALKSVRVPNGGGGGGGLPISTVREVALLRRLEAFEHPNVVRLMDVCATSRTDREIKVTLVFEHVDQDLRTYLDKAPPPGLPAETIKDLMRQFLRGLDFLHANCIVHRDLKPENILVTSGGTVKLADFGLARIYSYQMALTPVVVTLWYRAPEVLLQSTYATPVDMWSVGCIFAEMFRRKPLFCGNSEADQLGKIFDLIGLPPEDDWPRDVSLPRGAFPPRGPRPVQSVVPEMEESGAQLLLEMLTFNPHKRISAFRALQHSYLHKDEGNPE
# Sequence (P24385 whole entry, further chain): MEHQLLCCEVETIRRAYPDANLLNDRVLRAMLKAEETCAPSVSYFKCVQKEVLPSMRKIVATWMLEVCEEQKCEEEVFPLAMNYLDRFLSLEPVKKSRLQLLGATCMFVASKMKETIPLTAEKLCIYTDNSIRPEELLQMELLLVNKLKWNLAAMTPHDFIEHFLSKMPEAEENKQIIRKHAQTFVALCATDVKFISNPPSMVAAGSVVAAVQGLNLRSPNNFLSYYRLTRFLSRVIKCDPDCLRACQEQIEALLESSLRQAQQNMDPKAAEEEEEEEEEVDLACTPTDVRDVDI
# Experimental protocol: Inhibitory concentration tested against Cyclin dependant kinase 4-cyclinD1
# Assay type: protein-complex assay
Below, each entry is listed alongside its reported IC50.

Identify measured IC50 corresponding to "Oc1ccc2oc3ncc(Cl)c(-c4ccccc4)c3c2c1"
> 100 µM

Complete the entry with IC50 for "COc1cnc2oc3ccc(O)cc3c2c1-c1ccccc1"
> 100 µM

Note down IC50 recorded for "Cc1cnc2oc3ccc(O)cc3c2c1-c1ccccc1"
> 100 µM

Quickly give me recorded IC50 for "Oc1ccc2oc3ncc(Br)c(-c4ccccc4)c3c2c1"
28.7 µM

Give the reported value of IC50 for this record: "CCOc1cnc2oc3ccc(O)cc3c2c1-c1ccccc1"
> 100 µM

* * *

# Test system: Cyclin-dependent kinase 1/cyclin B1 (Homo sapiens, UniProt P06493)
# Sequence (P06493 whole entry): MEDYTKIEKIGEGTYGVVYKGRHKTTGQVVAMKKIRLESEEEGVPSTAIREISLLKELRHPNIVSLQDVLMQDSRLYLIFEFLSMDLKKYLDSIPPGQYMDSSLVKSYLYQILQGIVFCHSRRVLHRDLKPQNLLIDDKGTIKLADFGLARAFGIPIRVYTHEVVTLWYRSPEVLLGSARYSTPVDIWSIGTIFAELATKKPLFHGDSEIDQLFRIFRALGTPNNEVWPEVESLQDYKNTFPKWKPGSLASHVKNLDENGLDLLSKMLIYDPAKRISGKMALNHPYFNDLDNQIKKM
# Sequence (P14635 whole entry, further chain): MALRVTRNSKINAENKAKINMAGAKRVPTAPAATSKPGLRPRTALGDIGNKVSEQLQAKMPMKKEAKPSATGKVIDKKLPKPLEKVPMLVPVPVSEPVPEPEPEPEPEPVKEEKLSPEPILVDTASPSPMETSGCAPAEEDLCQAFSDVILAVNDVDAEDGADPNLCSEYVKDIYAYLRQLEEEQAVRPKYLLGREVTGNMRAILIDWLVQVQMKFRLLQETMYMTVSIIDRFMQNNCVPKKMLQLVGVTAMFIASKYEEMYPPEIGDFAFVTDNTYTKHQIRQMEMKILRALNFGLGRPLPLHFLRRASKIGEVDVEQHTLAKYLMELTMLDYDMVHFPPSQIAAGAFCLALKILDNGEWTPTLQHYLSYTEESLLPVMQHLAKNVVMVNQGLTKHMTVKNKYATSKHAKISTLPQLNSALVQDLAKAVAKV
# Experimental protocol: Inhibitory concentration tested against Cyclin dependant kinase 1-cyclinB
compounds and their reported IC50

Known IC50 results, listed for orientation:
> print(dat)
                              compound  recorded.metric  data.value
1     Cc1cnc2oc3ccc(O)cc3c2c1-c1ccccc1             IC50    > 100 µM
2  Oc1ccc2oc3ncc(Cl)c(-c4ccccc4)c3c2c1             IC50    > 100 µM

# ---- query compound ----
Report IC50 for "CCOc1cnc2oc3ccc(O)cc3c2c1-c1ccccc1"
> 100 µM

* * *

# Test system: Cyclin-dependent kinase 2/cyclin E1 (Homo sapiens)
# Experimental protocol: Inhibitory concentration tested against Cyclin dependant kinase 2-cyclinE
# Assay type: protein-complex assay
Recorded metric: IC50

Here are 2 molecules together with their reported answers.
> print(dat)
                              compound                               test.system  data.value
1     Cc1cnc2oc3ccc(O)cc3c2c1-c1ccccc1  Cyclin-dependent kinase 2/cyclin E1 (Homo sapiens)    > 100 µM
2  Oc1ccc2oc3ncc(Cl)c(-c4ccccc4)c3c2c1  Cyclin-dependent kinase 2/cyclin E1 (Homo sapiens)    > 100 µM

Please give the documented IC50 of "CCOc1cnc2oc3ccc(O)cc3c2c1-c1ccccc1"
> 100 µM
